Tested on: Mus musculus
Assay: Analgesic agonist activity in acetic acid induced mouse writhing assay, subcutaneous administration
Type: functional
Conditions: sc
REPORTED_ENDPOINT: log10 ED50 (log10 of the value in µmol/kg)
Transform log10 | Measure ED50 | Unit µmol/kg

COc1ccc2c3c1O[C@H]1[C@@H]4OC[C@]4(C)CC4[C@@H](C2)N(C)CC[C@@]341 (some centres not stated)    0.28
COc1ccc2c3c1O[C@H]1[C@@H](O)C(C)(C)CC4[C@@H](C2)N(C)CC[C@@]341 (some centres not stated)    1.10
Oc1ccc2c(c1)[C@@]13CCCC[C@@]1(O)[C@@H](C2)N(CC1CCC1)CC3 [BUTORPHANOL]    -0.47
COc1ccc2c3c1O[C@H]1C(=O)CC[C@H]4[C@@H](C2)N(C)CC[C@]314 [HYDROCODONE]    0.38
CC(C)=CCN1CC[C@@]2(C)c3cc(O)ccc3C[C@@H]1[C@@H]2C    1.11
COc1ccc2c3c1O[C@H]1[C@@H]4OC[C@]4(C)[C@H](C)C4[C@@H](C2)N(C)CC[C@@]341 (some centres not stated)    0.26
COc1ccc2c3c1O[C@H]1[C@H](O)C(C)(C)CC4[C@@H](C2)N(C)CC[C@@]341 (some centres not stated)    0.81
CC[C@@H]1C2[C@H]3Cc4ccc(O)c5c4[C@@]2(CCN3CC2CCC2)[C@@H](O5)C(=O)C1(C)C (some centres not stated)    1.27
CC[C@@H]1C2[C@H]3Cc4ccc(OC)c5c4[C@@]2(CCN3C)[C@@H](O5)C(=O)C1(C)C (some centres not stated)    0.64
CC[C@@H]1C2[C@H]3Cc4ccc(OC)c5c4[C@@]2(CCN3C)[C@@H](O5)[C@@H]2OC[C@]12C (some centres not stated)    1.05

For COc1ccc2c3c1O[C@H]1[C@H](O)C(C)(C)[C@H](C)C4[C@@H](C2)N(C)CC[C@@]341 (some centres not stated) the compound record lists log10 ED50 as 0.58

// log10 ED50 value for CC[C@@H]1C2[C@H]3Cc4ccc(O)c5c4[C@@]2(CCN3C)[C@@H](O5)C(=O)C1(C)C (some centres not stated) : -0.22

Lab book: log10 ED50 of COc1ccc2c3c1O[C@H]1C(=O)C(C)(C)CC4[C@@H](C2)N(C)CC[C@@]341 (some centres not stated) noted as 0.59

Record COc1ccc2c3c1O[C@H]1C(=O)C(C)(C)[C@H](C)C4[C@@H](C2)N(C)CC[C@@]341 (some centres not stated) . Reported log10 ED50: 0.40
